System: P388 leukemia ip, CD2F1 mice, survival T/C
Experiment: NCI In Vivo Anticancer Drug Screen. Data for tumor model P388 Leukemia (intraperitoneal) in CD2F1 (CDF1) mice
Conditions: endpoint: median survival time; dose: 200.0 mg/kg/injection; schedule: Q01DX005 (ip); vehicle: saline with Tween-80; higher = longer survival
Inconclusive results and toxic doses are left out.
measurementType: T/C

// below: answered molecules
molecule	targetOrSystem	T/C
Cn1c2ccccc2c(=O)c2cc(NC(=O)/C=C/C(=O)Nc3ccc4c(c3)c(=O)c3ccccc3n4C)ccc21	P388 leukemia ip, CD2F1 mice, survival T/C	106 % of control
COc1ccc(C(=O)Nc2c(O)ccc3ccccc23)cc1OC	P388 leukemia ip, CD2F1 mice, survival T/C	100 % of control
CC1(C)CC(=O)C2=C(C1)NC1=C(C(=O)CC(C)(C)C1)C2c1cccs1	P388 leukemia ip, CD2F1 mice, survival T/C	93 % of control
Cc1ccccc1Nc1ccc([N+](=O)[O-])c2nonc12	P388 leukemia ip, CD2F1 mice, survival T/C	92 % of control
COC(=O)CC1(C(=O)OC)Oc2ccc(Br)cc2C(=O)N1c1cccc(Cl)c1Cl (stereo not given)	P388 leukemia ip, CD2F1 mice, survival T/C	100 % of control

Hey, quick one: what's T/C for each of these?
1. S=c1n(-c2ccc(Cl)cc2)c2nc3ccccc3nc(/c2=N\Nc2ccccc2)n1-c1ccc(Br)cc1
2. CC(O)c1nc2ccccc2nc1C(=O)Nc1ccccc1N (stereo not given)

Ans:
1. 105 % of control
2. 92 % of control
